Listing of recorded pKd by entry.
- targetOrTestSystem: T1, Human PD-1 (AcroBiosystems) (human, UniProt Q15116 25-167, limits assumed)
- T1 construct: Bought recombinant protein, amine-coupled to the SPR chip
- T1 sequence (Q15116 25-167 limits assumed): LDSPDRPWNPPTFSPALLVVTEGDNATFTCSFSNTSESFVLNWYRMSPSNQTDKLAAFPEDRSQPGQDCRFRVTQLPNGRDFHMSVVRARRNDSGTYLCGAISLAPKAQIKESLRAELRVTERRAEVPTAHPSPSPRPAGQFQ
- experimentalProtocol: SPR (ProteOn XPR), human PD-1 amine-coupled on GLC chip, antibody as analyte, Langmuir model
Interpret pKd as the negative base-10 log of the concentration measured in mol/L.

# example entries with known answers
IP-H4.2L1 (antibody, human IgG4 S228P, kappa, V domains shown) VH: QVQLVQSGVEVKKPGASVKVSCKASGYTFTTYYIYWVRQAPGQGLEWMGGVNPSNGGTNYNENYKNRVTLTTDSSTTTAYMELKSLQFDDTAVYYCARRDYRYDMGYDYWGQGTTVTVSS VL: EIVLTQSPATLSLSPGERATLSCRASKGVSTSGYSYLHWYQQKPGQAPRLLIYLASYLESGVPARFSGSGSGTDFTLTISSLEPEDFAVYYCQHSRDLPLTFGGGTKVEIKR    11.09
N5NL (antibody, human IgG4 S228P, kappa, V domains shown, Full-length IgG4 from the pZRCIII hyg.IgG4 vector. 'NSNL' in the text is an OCR form of N5NL; also called NSNL) VH: QVQLVESGGGVVQPGRSLRLDCKASGITFSNSGMHWVRQAPGKGLEWVAVIWYDGSKRYYADSVKGRFTISRDNSKNTLFLQMNSLRAEDTAVYYCATNSDFWGQGTLVTVSS VL: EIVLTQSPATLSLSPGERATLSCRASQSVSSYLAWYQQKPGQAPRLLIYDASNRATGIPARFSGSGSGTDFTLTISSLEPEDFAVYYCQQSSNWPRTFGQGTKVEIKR    10.12

Attention now turns to another entry.
## Task // query pKd value for entry N7NL (antibody, human IgG4 S228P, kappa, V domains shown, Full-length IgG4 from the pZRCIII hyg.IgG4 vector) VH: QVQLVESGGGVVQPGRSLRLDCKASGITFSNSGMHWVRQAPGKGLEWVAVIWYDGSKRYYADSVKGRFTISRDNSKNTLFLQMNSLRAEDTAVYYCATNSDYWGQGTLVTVSS VL: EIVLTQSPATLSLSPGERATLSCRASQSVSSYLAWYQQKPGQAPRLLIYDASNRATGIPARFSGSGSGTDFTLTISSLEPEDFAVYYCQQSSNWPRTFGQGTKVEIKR
## Result 10.31
